Below, each of the compounds is paired with its reported melting point value.

Worked examples, 4 compounds total:
INSERT INTO assay_data (compound, measvalue) VALUES
  ('CC(C)(C)c1cc(C(=O)c2ccc(O)cc2O)cc(C(C)(C)C)c1O', '192 to 193 °C'),
  ('COc1ccc(NS(=O)(=O)N2CCn3c(c(C(N)=O)c(Cl)c3-c3ccccc3)C2)cc1', '152 to 154 °C'),
  ('N#Cc1cnn2c1NCCC2', '206 to 207 °C'),
  ('O=C1NC(c2ccc(Cl)cc2)Nc2ccccc21 (stereo not given)', '190 °C');

## Task What measured melting point goes with Cc1ccc(-n2nc(CC(=O)N(C)C)c3c4ccc(Cl)cc4n(C)c3c2=O)cn1 ?
## Result 253 to 255 °C

Data provenance: a melting point compilation (Tetko et al.; mined from patent text by program, amines drawn as free bases though some values may be those of a salt)
